Before we begin, note that these pKi values for Carboxypeptidase A1 (Bos taurus, UniProt P00730) originate from several publications.
pKi: −log10 of the molar value.
attribute.measured: pKi

Worked cases, answers included:
O=C(O)[C@H](CS)NCc1ccccc1 = 4.48
O=C(O)C(CS)Cc1ccc(F)cc1 (configuration not stated) = 7.43
CC(=O)N[C@@H](CC(C)C)C(=O)N1CCC[C@@H]1P(=O)(O)CC(Cc1cc(-c2ccccc2)no1)C(=O)O (some centres not stated) = 7.46
Cc1cccc(CCc2nnc(SCC(=O)O)n2Cc2ccccc2)c1 = 3.66
COC(=O)[C@@H]1CC[C@@H]1NC(=O)[C@@H]1CC[C@@H]1NC(=O)OCc1ccccc1 = 4.02
O=C(O)C(CS)Cc1ccc(Cl)cc1 (configuration not stated) = 6.80
O=C(O)c1cccc(-n2nnnc2SCC(=O)c2ccccc2F)c1 = 3.26
O=C(O)C(CS)CCc1ccccc1 (configuration not stated) = 5.68
Cc1ccc(CC(CS)C(=O)O)cc1 (configuration not stated) = 6.95
O=C(C1CC1)N(Cc1ccccc1)c1nc(-c2ccccc2)cs1 = 3.10

A: O=C(O)c1ccccc1C(=O)N1CCC(C(=O)c2ccccc2)CC1
B: CC(c1ccccc1)C(CS)C(=O)O (configuration not stated)
input: Which value of pKi is greater, the one for A or the one for B ? Please reply using the label of the selected record.
output: B

---

Target: Carboxypeptidase A1 (Bos taurus)
Sequence (P00730 whole entry): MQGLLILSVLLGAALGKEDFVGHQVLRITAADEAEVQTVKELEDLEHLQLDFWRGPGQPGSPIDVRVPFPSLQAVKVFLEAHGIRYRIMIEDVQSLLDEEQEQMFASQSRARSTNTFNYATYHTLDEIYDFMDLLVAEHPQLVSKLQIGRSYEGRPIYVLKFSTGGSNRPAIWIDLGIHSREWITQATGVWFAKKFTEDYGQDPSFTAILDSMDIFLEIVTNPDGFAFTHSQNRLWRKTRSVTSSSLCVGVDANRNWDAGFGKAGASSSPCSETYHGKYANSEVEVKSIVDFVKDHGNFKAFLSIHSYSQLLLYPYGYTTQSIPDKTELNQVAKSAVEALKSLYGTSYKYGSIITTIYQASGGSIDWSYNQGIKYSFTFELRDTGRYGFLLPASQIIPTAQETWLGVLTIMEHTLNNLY
// note: Ki values for Carboxypeptidase A1 (Bos taurus) were reported in different studies
attribute.measured: Ki (µM)

Record excerpt, results attached:
CC(C)NS(=O)(=O)N[C@@H](Cc1ccccc1)C(=O)O = 610
O=C(O)[C@H](Cc1ccccc1)NS(=O)(=O)NCCc1ccccc1 = 180
O=C(O)C(CS)NCCCc1ccccc1 (stereo not drawn) = 1.3
O=C(O)CC(Cc1ccccc1)C(=O)O (racemic) = 0.5

P: COC(=O)CNC(=O)[C@@H]1CC[C@@H]1NC(=O)OCc1ccccc1
Q: Cc1cc(S(=O)(=O)N(Cc2ccco2)Cc2ccccc2Cl)ccc1-n1cnnn1
input: Compare Ki: is it lower for P or for Q ? # answer = label of selected item
output: Q
(Q: 159 µM, P: 550 µM)

---

pKi: −log10 of the molar value.
System: Carboxypeptidase A1 (Bos taurus, UniProt P00730) | Read-out: pKi | Origin: multiple publications
attribute.measured: pKi

Reference set, count: 5
O=C(O)C(CS)Cc1ccc2ccccc2c1 (configuration not stated) = 6.70
O=C(O)[C@H](CS)NC1CCCCC1 = 5.10
COC(=O)CCCCNC(=O)[C@H]1CC[C@H]1NC(=O)OCc1ccccc1 = 4.14
CC(=O)N[C@@H](CC(C)C)C(=O)N1CCC[C@@H]1P(=O)(O)C[C@@H](Cc1ccccc1)C(=O)O (stereo in doubt) = 9.30
NS(=O)(=O)N[C@H](Cc1ccccc1)C(=O)O = 3.33

A: O=C(O)[C@H](Cc1ccccc1)NS(=O)(=O)NCc1ccccc1
B: O=C(O)C(CS)Cc1c(F)c(F)c(F)c(F)c1F (configuration not stated)
C: Cc1ccc(S(=O)(=O)N2CCN(C(=O)CNCc3ccncc3)CC2)cc1
input: Output the entries ranked by pKi from maximum down to minimum. Return the labels ranked in the requested order, please.
output: B, A, C

---

Target: Carboxypeptidase A1 (Bos taurus)
Sequence (P00730 whole entry): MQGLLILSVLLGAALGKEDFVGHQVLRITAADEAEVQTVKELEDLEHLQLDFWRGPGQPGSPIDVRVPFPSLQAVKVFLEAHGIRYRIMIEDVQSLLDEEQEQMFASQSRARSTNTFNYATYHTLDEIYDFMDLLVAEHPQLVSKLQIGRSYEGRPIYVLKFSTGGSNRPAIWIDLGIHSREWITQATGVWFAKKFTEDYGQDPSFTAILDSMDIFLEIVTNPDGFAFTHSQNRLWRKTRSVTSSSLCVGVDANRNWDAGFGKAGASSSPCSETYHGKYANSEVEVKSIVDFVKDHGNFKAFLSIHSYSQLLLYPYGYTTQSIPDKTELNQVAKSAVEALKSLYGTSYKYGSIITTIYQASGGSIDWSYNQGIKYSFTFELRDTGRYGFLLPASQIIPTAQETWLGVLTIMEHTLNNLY
pKi: −log10 of the molar value.
Let's look at some pKi data for Carboxypeptidase A1 (Bos taurus) that I collected from the literature.
attribute.measured: pKi

Cc1cccc(CC(CS)C(=O)O)c1C (centres undefined) = 6.46

1: Cc1ccc(C(=O)CSc2nnc(COc3ccc(Cl)cc3)o2)cc1
2: O=C(O)C(CS)NCCc1ccccc1 (centres undefined)
3: O=C(O)CCNC(=O)[C@@H]1CC[C@@H]1NC(=O)OCc1ccccc1
input: Please produce an ascending ranking of these compounds based on pKi. Field: ranking. Enter the labels in the order requested.
output: 3, 1, 2
(3: 4.15, 1: 4.44, 2: 7.19)

1: COC(=O)[C@H]1CC[C@H]1NC(=O)[C@H]1CC[C@H]1NC(=O)OCc1ccccc1
2: O=C(O)C(CS)Cc1ccc(F)c(F)c1 (centres undefined)
input: Which of the two gives a bigger number for pKi: 1 or 2 ? Indicate your choice by writing its label.
output: 2
(2: 6.60, 1: 4.17)

---

// compounds with reported Ki on Carboxypeptidase A1 (Bos taurus), multi-publication
Molecular target: Carboxypeptidase A1 (Bos taurus)
Sequence (P00730 whole entry): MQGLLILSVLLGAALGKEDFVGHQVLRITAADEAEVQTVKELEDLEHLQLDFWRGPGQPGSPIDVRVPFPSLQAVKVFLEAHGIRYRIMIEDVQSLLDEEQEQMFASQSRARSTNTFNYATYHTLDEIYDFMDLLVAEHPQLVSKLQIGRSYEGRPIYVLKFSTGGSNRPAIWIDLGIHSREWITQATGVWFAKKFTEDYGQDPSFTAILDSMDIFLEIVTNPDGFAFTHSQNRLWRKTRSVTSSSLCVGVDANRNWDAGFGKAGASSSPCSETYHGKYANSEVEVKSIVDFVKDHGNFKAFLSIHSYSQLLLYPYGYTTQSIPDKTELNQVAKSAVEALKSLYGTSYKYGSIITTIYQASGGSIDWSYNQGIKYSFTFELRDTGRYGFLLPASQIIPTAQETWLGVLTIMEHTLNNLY

CC(=O)N[C@@H](Cc1c[nH]cn1)C(=O)N[C@H](CC(C)C)P(=O)(O)CC(Cc1cc(-c2ccccc2)no1)C(=O)O (stereo partly drawn) = > 10 µM
O=C(O)C(CS)NCc1ccc2ccccc2c1 (stereo not drawn) = > 500 µM

# evaluate next
Input `Cc1ccccc1CCNS(=O)(=O)c1ccc(-n2cnnn2)c(C)c1` . Output Ki: 138 µM
